# Tested on: NCI-H226 lung
# PROCEDURE_TEXT: NCI-60 one-dose screen, 48 h
# PROTOCOL_CONDITIONS: 10 µM unless noted
About 83,000 compounds went through this panel and 20% of them were active in at least one assay; those are over-represented in the sample as a whole. Active and inactive are the calls of the source. Rule for the calls: active = growth percent below 10; inactive = the rest.
Form entry, call: pick from active, inactive

Q: I would be grateful if you could indicate the recorded call for CCOC(=O)C(Cc1cc(I)c(O)c(I)c1)NC(=O)c1ccccc1 (stereo not given) .
A: inactive

Q: I would be grateful if you could indicate the recorded call for OC(c1cc(-c2ccccc2)nc2ccc(Cl)cc12)C1CCCCN1 (stereo not given) .
A: inactive

Q: I would be grateful if you could indicate the recorded call for CN[C@@]12CC3(C=CC(=O)C=C3)O[C@]1(Cc1ccc(OC)cc1)N(C)C(=O)N2 .
A: inactive

Q: I would be grateful if you could indicate the recorded call for CCCCCCCCCCCCNC(=O)[C@H]1CSC(c2ccc(OC)c(F)c2)N1 (stereo not given in full) .
A: active

Q: I would be grateful if you could indicate the recorded call for COc1ccc(C(=O)/C=C/c2cc3ccccc3[nH]c2=O)cc1 .
A: inactive

Q: I would be grateful if you could indicate the recorded call for CCC(c1ccc(O)cc1)C(CC)c1ccc(O)c(F)c1 (stereo not given) .
A: inactive

Q: I would be grateful if you could indicate the recorded call for COc1ccc(S(=O)(=O)NCCNc2nccc(-c3c(-c4cccc([N+](=O)[O-])c4)nc4sccn34)n2)cc1 .
A: inactive

Q: I would be grateful if you could indicate the recorded call for C=C1CCC2C3(C)COC(c4ccccc4Br)OC3CCC2(C)C1C/C=C1/C(=O)OCC1OC(C)=O (stereo not given) .
A: active

Q: I would be grateful if you could indicate the recorded call for Nc1nc(SCc2ccccc2)c2ncn(C3CCCC3)c2n1 .
A: inactive

Q: I would be grateful if you could indicate the recorded call for CCN(CC)CCC(=O)c1ccc(OC)c2ccccc12 .
A: inactive

Values were extracted from PubChem BioAssay (NCI).
